folding stability dG unfold overview
Experiment: folding stability dG unfold from trypsin proteolysis; higher = more stable
reported.endpoint: folding stability dG unfold (kcal/mol)

sequence_input="SAGGSAGGSAGWFFVMDIKYEYRQTPDGKTEQEMSIEMKPIPPIPAEDLKEKLGLPPEDIASAGGSAGGSAG [r3_338_TrROS]" test_result=0.937
sequence_input="SAGGSAGGRIEVDPEGATIKYEHNPNMMQIEIKYPGKKVQIMIPPDFMKQNPDMPIKDLVEWILSAGGSAGG [r6_369_TrROS]" test_result=1.09
sequence_input="SAGEKKLTEEEIKKLVEELLKKLKPGEKEKVTLEIELTLEDGRKVKIRITVEVKDGKLVVKIEVEELPSAGG [r19_220_TrROS_Hall]" test_result=3.65
sequence_input="SASKKPKLIIVDIVIKPEELKKMKPEELIEKILKELGIPKEKDVKIDLFLEPVELDGEEYYIIPALITNSAG [r14_334_TrMRF]" test_result=1.11
sequence_input="SAGGSSLTTPDGVKVEVYENPENNTIYVFEKKPDGTYTLKTLTKEGDKVTEVSTKTIKSNEKEKLLSAGGSA [r2_336_JUSTAS]" test_result=0.966
sequence_input="SAGGSAGGSSPEIPLPPEIAEEIEVPGSGTTVLLHPSTGLVLYKPPPEELAVGRYDPSTGVLESAGGSAGGS [r12_420_JUSTAS]" test_result=0.985
sequence_input="SAGGPATLTFEFPAEDGSRVRVEVTVEEVPFVDPRTGEPVAPFLKVHVKVTVFDEDGEAHEAEFELLSAGGS [r8_474_TrMRF]" test_result=2.22
sequence_input="SAGGIPPNDPEYQQKMQLLKEIQNFAKEQQQNGRDVKIETIEINPEDGRVTITVQYPNGKKVTITIPSAGGS [r8_277_TrROS]" test_result=1.79
sequence_input="SAGGSAGGSAGSPVSNPEGGTITNTETLPDGKTIVNTQTIDPSKPKTTTSTTVLDPNGNAVSAGGSAGGSAG [r3_433_JUSTAS]" test_result=0.894
sequence_input="SAGGSAGGSAGGMLLSPEEAEKLAAELKAKENVTIKVTPEPSPGKVKVEIIKTKGPKLVSAGGSAGGSAGGS [r10_402_JUSTAS]" test_result=-0.0172
sequence_input="SAKTVTLKVTLEIEINGVRVKVEATLTLELDENGELKLTLELKIEIEPAPPPKEVKLTEEEKKKLEELKSAG [r14_442_TrROS_Hall]" test_result=2.44
sequence_input="SAGGATRIRVLATNASGEKVELDIPQAIADAIAEALKQGKPIPPGPASVIAAFATSNGYDFEIVDISSAGGS [r8_159_TrMRF]" test_result=2.02
sequence_input="SAGGVVEVEVPDLSLEEALERVREEYPDVPEFTLTLPSGERVEFRVEGDRVEVVRREPLGPRPPELESAGGS [r8_225_JUSTAS]" test_result=1.63
sequence_input="SEITIKLKVENLSEEELKKLAEELAKEGLFEITSIKVENGYVTITIKKKPKPPPKPEKKKVVFDKDGKPVSA [r9_830_TrROS_Hall]" test_result=0.975

----------
Test: folding stability dG unfold from chymotrypsin proteolysis; higher = more stable
folding stability dG unfold overview
reported.endpoint: folding stability dG unfold (kcal/mol)

sequence_input="SAGGSAGGSADYFMVVIKYYPPNGEKQEHPFSVPFKDEEDLKDEIKEQAPPGREVEIEIFPMSAGGSAGGSA [r18_60_TrROS]" value_units=kcal/mol test_result=-0.0385
sequence_input="SAGKMVKITITGPADKIKELLKKLFPNAEVEVKKVNGKLVFYFKPGEEVIEIEITDKDGNKLTIKIEKVSAG [r5_123_TrROS_Hall]" value_units=kcal/mol test_result=3.74
sequence_input="SAGGSASLQTSTASVSPGALEKAIEAAKAAPPGTAVSVSFGDPVVGTPRPVTLTVDSAGNLVEITGSAGGSA [r15_228_JUSTAS]" value_units=kcal/mol test_result=0.0446
sequence_input="SAGGSAGGSEVKVLVYPPKGPPRLFADDVPIETLVAQFTAEDPPEPLVLVTKEEAEKLGFPLESAGGSAGGS [r12_379_TrMRF]" value_units=kcal/mol test_result=0.15
